# Tested on: MCF-10A
# ASSAY_NOTES: drug sensitivity score (DSS), CellTox Green (DSS (AUC-based score)); higher = stronger drug effect (viability inhibition or cytotoxicity); extreme values may be limits of the assay
# CONDITION_PARAMETERS: incubation time: 72 h
For each record, write down the corresponding drug sensitivity score.
Keep it simple and answer with nothing but the number.

Ask: May I ask what drug sensitivity score has been recorded for `COc1c(C)cnc(Cn2cnc3c(Cl)nc(N)nc32)c1C` ?
Reply: 15.3

Ask: May I ask what drug sensitivity score has been recorded for `Cn1cnc2c(F)c(Nc3ccc(Br)cc3F)c(C(=O)NOCCO)cc21` ?
Reply: 0

Ask: May I ask what drug sensitivity score has been recorded for `COc1cc(Nc2ncc(F)c(Nc3ccc4c(n3)NC(=O)C(C)(C)O4)n2)cc(OC)c1OC` ?
Reply: 0

Ask: May I ask what drug sensitivity score has been recorded for `CCOc1cc2ncc(C#N)c(Nc3ccc(OCc4ccccn4)c(Cl)c3)c2cc1NC(=O)/C=C/CN(C)C` ?
Reply: 0

Ask: May I ask what drug sensitivity score has been recorded for `C#Cc1cccc(Nc2ncnc3cc(OC)c(OCCCCCCC(=O)NO)cc23)c1` ?
Reply: 1.27

Ask: May I ask what drug sensitivity score has been recorded for `CC(=O)O[C@H]1C(=O)[C@@]2(C)[C@H]([C@H](OC(=O)c3ccccc3)[C@]3(O)C[C@H](OC(=O)[C@H](O)[C@@H](NC(=O)c4ccccc4)c4ccccc4)C(C)=C1C3(C)C)[C@]1(OC(C)=O)CO[C@@H]1C[C@@H]2O` ?
Reply: 21.4

Ask: May I ask what drug sensitivity score has been recorded for `FC(F)c1nc2ccccc2n1-c1nc(N2CCOCC2)nc(N2CCOCC2)n1` ?
Reply: 0

* * *

# System: CAL-85-1
# ASSAY_NOTES: normalised response (% of control), CellTiter-Glo; higher = more viable cells (100 = DMSO, 0 = benzethonium chloride kill control)
# CONDITION_PARAMETERS: incubation time: 72 h
For each record, write down the corresponding normalised response.
Field format: number, assumed %, no unit text.

Ask: May I ask what normalised response has been recorded for CC(C)C[C@H](NC(=O)[C@H](Cc1ccccc1)NC(=O)c1cnccn1)B(O)O [Bortezomib] (1 nM) ?
Reply: 98.8

Ask: May I ask what normalised response has been recorded for C[C@@]1(C(=O)Nc2ccc(F)nc2)CCCN1c1nc(Nc2cc(C3CC3)n[nH]2)c2cccn2n1 (10 nM) ?
Reply: 91.6

Ask: May I ask what normalised response has been recorded for CS(=O)(=O)OCCCCOS(C)(=O)=O [Busulfan] (100 nM) ?
Reply: 98.1

* * *

# System: MDA-MB-436
# ASSAY_NOTES: normalised response (% of control), CellTiter-Glo; higher = more viable cells (100 = DMSO, 0 = benzethonium chloride kill control)
# CONDITION_PARAMETERS: incubation time: 72 h
For each record, write down the corresponding normalised response.
Field format: number, assumed %, no unit text.

Ask: May I ask what normalised response has been recorded for Cn1cnc2c(F)c(Nc3ccc(Br)cc3F)c(C(=O)NOCCO)cc21 [MEK-162] (0.1 nM) ?
Reply: 97.9

Ask: May I ask what normalised response has been recorded for O=c1[nH]c(=O)n([C@H]2C[C@H](O)[C@@H](CO)O2)cc1F [Floxuridine] (10 nM) ?
Reply: 92.5

Ask: May I ask what normalised response has been recorded for CC(=O)O[C@H]1C(=O)[C@@]2(C)[C@H]([C@H](OC(=O)c3ccccc3)[C@]3(O)C[C@H](OC(=O)[C@H](O)[C@@H](NC(=O)c4ccccc4)c4ccccc4)C(C)=C1C3(C)C)[C@]1(OC(C)=O)CO[C@@H]1C[C@@H]2O [Paclitaxel] (100 nM) ?
Reply: 28.1

Ask: May I ask what normalised response has been recorded for COc1cccc2c1C(=O)c1c(O)c3c(c(O)c1C2=O)C[C@@](O)(C(C)=O)C[C@@H]3O[C@H]1C[C@H](N)[C@H](O)[C@H](C)O1 [Daunorubicin] (100 nM) ?
Reply: 77.9

Entry source: the supplement of paper PMC4862054
